Attribution: ChEMBL document CHEMBL1201862

system: UACC-62; assay: NCI tumour cell line growth inhibition, 48 h
Activity calls are given as the source filed them. Rule as the data show it: active = GI50 up to about 1.1 µM and inactive = higher.

COMPOUND: Cc1cc(=O)oc2c(CNC(CO)C(=O)O)c(O)ccc12 (stereo unspecified)
TARGET_OR_SYSTEM: UACC-62
GI50: > 100 µM (inactive)
//
COMPOUND: O=C1Nc2cc([N+](=O)[O-])ccc2C(=O)N2CCC[C@@H]12
TARGET_OR_SYSTEM: UACC-62
GI50: > 100 µM (inactive)
//
COMPOUND: c1csc(-c2ccsc2-c2cccs2)c1
TARGET_OR_SYSTEM: UACC-62
GI50: > 100 µM (inactive)
//
COMPOUND: CN(C)CC[N+](C)(C)[BH2-]C(O)O
TARGET_OR_SYSTEM: UACC-62
GI50: > 100 µM (inactive)
//
COMPOUND: COC(=O)Cc1ccc2c(c1)Sc1ccc(CC(=O)OC)cc1N2C
TARGET_OR_SYSTEM: UACC-62
GI50: 23.9 µM (inactive)
//
COMPOUND: CN(C(=O)C1=CCC2(CC1)OCCO2)c1ccccc1I
TARGET_OR_SYSTEM: UACC-62
GI50: > 100 µM (inactive)
//
COMPOUND: CCOC1C=CC(=O)C(CO)O1 (stereo unspecified)
TARGET_OR_SYSTEM: UACC-62
GI50: 12.4 µM (inactive)
//
COMPOUND: Nc1ccccc1C(=O)CCC1C(=O)NC(=S)NC1=O
TARGET_OR_SYSTEM: UACC-62
GI50: > 100 µM (inactive)
//
COMPOUND: Cc1ccc(NC(=O)/C(Cc2nc3ccc([N+](=O)[O-])cc3nc2O)=N\NC(=O)C[n+]2ccccc2)c(C)c1
TARGET_OR_SYSTEM: UACC-62
GI50: 55.1 µM (inactive)
//
COMPOUND: O=C(/C=C/c1ccc([N+](=O)[O-])cc1)N1CCN(CCOC(c2ccc(F)cc2)c2ccc(F)cc2)CC1
TARGET_OR_SYSTEM: UACC-62
GI50: 13.8 µM (inactive)
//
COMPOUND: CCCCNc1nc(O)c2[nH]cnc2n1
TARGET_OR_SYSTEM: UACC-62
GI50: > 100 µM (inactive)
